// data source = the supplement of paper PMC10307832

# Tested on: NCI-H441
# PROTOCOL: relative viability (nuclei count vs DMSO), 5 days (fraction); higher = more cells survive
# REPORTED_CONDITIONS: first compound 0.8 µM
The following compounds are listed with their measured relative viability values.
READOUT_KIND: relative viability

>  <COMPOUND>
C=C1C(=O)O[C@@H](CCCCCCCC)[C@@H]1C(=O)O [C-75] + CC1(C)CCC(c2ccc(Cl)cc2)=C(CN2CCN(c3ccc(C(=O)NS(=O)(=O)c4ccc(N[C@H](CCN5CCOCC5)CSc5ccccc5)c(S(=O)(=O)C(F)(F)F)c4)cc3)CC2)C1 [Navitoclax] (partner 0.5 µM)

>  <ASSAYED_SYSTEM>
NCI-H441

>  <READOUT_KIND>
relative viability

>  <MEASURED_RESULT>
0.599

$$$$
>  <COMPOUND>
C=C1C(=O)O[C@@H](CCCCCCCC)[C@@H]1C(=O)O [C-75] + Nc1ncn([C@H]2C[C@H](O)[C@@H](CO)O2)c(=O)n1 [Decitabine] (partner 2 µM)

>  <ASSAYED_SYSTEM>
NCI-H441

>  <READOUT_KIND>
relative viability

>  <MEASURED_RESULT>
0.287

$$$$
>  <COMPOUND>
Oc1nc(-c2ccc(C(F)(F)F)cc2)nc2c1CSCC2 [XAV939] + CS(=O)(=O)N1CCN(Cc2cc3nc(-c4cccc5[nH]ncc45)nc(N4CCOCC4)c3s2)CC1 [Pictilisib] (partner 1 µM)

>  <ASSAYED_SYSTEM>
NCI-H441

>  <READOUT_KIND>
relative viability

>  <MEASURED_RESULT>
0.517

$$$$
>  <COMPOUND>
C=C1C(=O)O[C@@H](CCCCCCCC)[C@@H]1C(=O)O [C-75] + C[C@@H](Oc1cc(-c2cnn(C3CCNCC3)c2)cnc1N)c1c(Cl)ccc(F)c1Cl [Crizotinib] (partner 1 µM)

>  <ASSAYED_SYSTEM>
NCI-H441

>  <READOUT_KIND>
relative viability

>  <MEASURED_RESULT>
0.556

$$$$
>  <COMPOUND>
Oc1nc(-c2ccc(C(F)(F)F)cc2)nc2c1CSCC2 [XAV939] + CCNC(=O)c1noc(-c2cc(C(C)C)c(O)cc2O)c1-c1ccc(CN2CCOCC2)cc1 [Luminespib] (partner 0.01 µM)

>  <ASSAYED_SYSTEM>
NCI-H441

>  <READOUT_KIND>
relative viability

>  <MEASURED_RESULT>
0.245

$$$$
>  <COMPOUND>
C=C1C(=O)O[C@@H](CCCCCCCC)[C@@H]1C(=O)O [C-75] + O=C(c1cc(Cc2n[nH]c(=O)c3ccccc23)ccc1F)N1CCN(C(=O)C2CC2)CC1 [Olaparib] (partner 8 µM)

>  <ASSAYED_SYSTEM>
NCI-H441

>  <READOUT_KIND>
relative viability

>  <MEASURED_RESULT>
0.528

$$$$
>  <COMPOUND>
Oc1nc(-c2ccc(C(F)(F)F)cc2)nc2c1CSCC2 [XAV939] + O=C(c1cc(Cc2n[nH]c(=O)c3ccccc23)ccc1F)N1CCN(C(=O)C2CC2)CC1 [Olaparib] (partner 8 µM)

>  <ASSAYED_SYSTEM>
NCI-H441

>  <READOUT_KIND>
relative viability

>  <MEASURED_RESULT>
0.613

$$$$
>  <COMPOUND>
Oc1nc(-c2ccc(C(F)(F)F)cc2)nc2c1CSCC2 [XAV939] + CC(=O)c1c(C)c2cnc(Nc3ccc(N4CCNCC4)cn3)nc2n(C2CCCC2)c1=O [Palbociclib] (partner 0.5 µM)

>  <ASSAYED_SYSTEM>
NCI-H441

>  <READOUT_KIND>
relative viability

>  <MEASURED_RESULT>
0.182

$$$$
>  <COMPOUND>
C=C1C(=O)O[C@@H](CCCCCCCC)[C@@H]1C(=O)O [C-75] + CC(=O)c1c(C)c2cnc(Nc3ccc(N4CCNCC4)cn3)nc2n(C2CCCC2)c1=O [Palbociclib] (partner 0.5 µM)

>  <ASSAYED_SYSTEM>
NCI-H441

>  <READOUT_KIND>
relative viability

>  <MEASURED_RESULT>
0.205

$$$$
>  <COMPOUND>
Oc1nc(-c2ccc(C(F)(F)F)cc2)nc2c1CSCC2 [XAV939] + O=C(CCCCCCC(=O)Nc1ccccc1)NO [Vorinostat] (partner 1 µM)

>  <ASSAYED_SYSTEM>
NCI-H441

>  <READOUT_KIND>
relative viability

>  <MEASURED_RESULT>
1.09

$$$$
>  <COMPOUND>
C=C1C(=O)O[C@@H](CCCCCCCC)[C@@H]1C(=O)O [C-75] + Cc1nc(Nc2ncc(C(=O)Nc3c(C)cccc3Cl)s2)cc(N2CCN(CCO)CC2)n1 [Dasatinib] (partner 0.075 µM)

>  <ASSAYED_SYSTEM>
NCI-H441

>  <READOUT_KIND>
relative viability

>  <MEASURED_RESULT>
0.723

$$$$
